Values from the supplement of paper PMC6757056

B1: library; a variant is named by its letters at N, in order (parent)
chain: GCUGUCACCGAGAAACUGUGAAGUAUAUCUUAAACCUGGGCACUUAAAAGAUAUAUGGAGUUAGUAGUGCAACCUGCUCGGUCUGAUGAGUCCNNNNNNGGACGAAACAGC

Variants of: B1
Test: normalized RNA/DNA level with ligand (relative to sTRSVctl = 100) (log10 (% of sTRSVctl)); HEK293T; ligand: cyclic di-GMP (c-di-GMP-II aptamer); ligand concentration (+) RNA-Seq: 1 mM; higher = less ribozyme self-cleavage, higher mRNA level
Details: reporter: mCherry (pCS4076), ligand present: yes
readout_name: normalized RNA/DNA level with ligand (log10)

[
  {
    "polymer_sequence": "GCUGUCACCGAGAAACUGUGAAGUAUAUCUUAAACCUGGGCACUUAAAAGAUAUAUGGAGUUAGUAGUGCAACCUGCUCGGUCUGAUGAGUCCUCCCGGGGACGAAACAGC [UCCCGG]",
    "val": 1.93
  },
  {
    "polymer_sequence": "GCUGUCACCGAGAAACUGUGAAGUAUAUCUUAAACCUGGGCACUUAAAAGAUAUAUGGAGUUAGUAGUGCAACCUGCUCGGUCUGAUGAGUCCGCUUUCGGACGAAACAGC [GCUUUC]",
    "val": 1.75
  },
  {
    "polymer_sequence": "GCUGUCACCGAGAAACUGUGAAGUAUAUCUUAAACCUGGGCACUUAAAAGAUAUAUGGAGUUAGUAGUGCAACCUGCUCGGUCUGAUGAGUCCAAACUCGGACGAAACAGC [AAACUC]",
    "val": 1.83
  },
  {
    "polymer_sequence": "GCUGUCACCGAGAAACUGUGAAGUAUAUCUUAAACCUGGGCACUUAAAAGAUAUAUGGAGUUAGUAGUGCAACCUGCUCGGUCUGAUGAGUCCGCACAAGGACGAAACAGC [GCACAA]",
    "val": 1.62
  },
  {
    "polymer_sequence": "GCUGUCACCGAGAAACUGUGAAGUAUAUCUUAAACCUGGGCACUUAAAAGAUAUAUGGAGUUAGUAGUGCAACCUGCUCGGUCUGAUGAGUCCCUAGUGGGACGAAACAGC [CUAGUG]",
    "val": 1.69
  },
  {
    "polymer_sequence": "GCUGUCACCGAGAAACUGUGAAGUAUAUCUUAAACCUGGGCACUUAAAAGAUAUAUGGAGUUAGUAGUGCAACCUGCUCGGUCUGAUGAGUCCACCCCAGGACGAAACAGC [ACCCCA]",
    "val": 1.86
  },
  {
    "polymer_sequence": "GCUGUCACCGAGAAACUGUGAAGUAUAUCUUAAACCUGGGCACUUAAAAGAUAUAUGGAGUUAGUAGUGCAACCUGCUCGGUCUGAUGAGUCCCUGUGCGGACGAAACAGC [CUGUGC]",
    "val": 1.85
  },
  {
    "polymer_sequence": "GCUGUCACCGAGAAACUGUGAAGUAUAUCUUAAACCUGGGCACUUAAAAGAUAUAUGGAGUUAGUAGUGCAACCUGCUCGGUCUGAUGAGUCCUCCAACGGACGAAACAGC [UCCAAC]",
    "val": 1.78
  },
  {
    "polymer_sequence": "GCUGUCACCGAGAAACUGUGAAGUAUAUCUUAAACCUGGGCACUUAAAAGAUAUAUGGAGUUAGUAGUGCAACCUGCUCGGUCUGAUGAGUCCUAAGCCGGACGAAACAGC [UAAGCC]",
    "val": 1.88
  },
  {
    "polymer_sequence": "GCUGUCACCGAGAAACUGUGAAGUAUAUCUUAAACCUGGGCACUUAAAAGAUAUAUGGAGUUAGUAGUGCAACCUGCUCGGUCUGAUGAGUCCGGUCAAGGACGAAACAGC [GGUCAA]",
    "val": 1.64
  },
  {
    "polymer_sequence": "GCUGUCACCGAGAAACUGUGAAGUAUAUCUUAAACCUGGGCACUUAAAAGAUAUAUGGAGUUAGUAGUGCAACCUGCUCGGUCUGAUGAGUCCUAGCCAGGACGAAACAGC [UAGCCA]",
    "val": 1.86
  }
]
